// provenance: patent US20150252048A1

# Method notes: Pharmacokinetics in rat
# Assay type: in vivo, male Sprague Dawley rats
# Recorded conditions: male, Sprague Dawley, plasma, IV 5 mg/kg, solution
Metric name: AUC(0-inf) (ng·h/mL)
One number for each entry, in ng·h/mL.

[ask] Give its AUC(0-inf) value. Item: C=CC(=O)Nc1cccc(-c2nc(Nc3cccc(N4CCOCC4)c3)nc3[nH]ncc23)c1
[reply] 1070

* * *

# Method notes: Pharmacokinetics in rat
# Type: in vivo, male Sprague Dawley rats
# Recorded conditions: male, Sprague Dawley, plasma, IV 5 mg/kg, solution
Metric name: clearance (L/h/kg)
Answers are plain numbers, in L/h/kg.

[ask] Give its clearance value. Item: C=CC(=O)Nc1cccc(-c2nc(Nc3cccc(N4CCOCC4)c3)nc3[nH]ncc23)c1
[reply] 4.78
